Give measured Minimum inhibitory concentration (MIC) for each item. Keep answers brief.
system: Staphylococcus aureus FDA209P; assay: Antibacterial test (MIC), Staphylococcus aureus FDA209P; assay type: cell-based; details: medium B-TSA
Numbers only, in µg/mL.

Use these answered entries as a reference point.
1) CON=C(C(=O)NC1CN(S(=O)(=O)[O-])C1=O)c1csc(N)n1.[Na+] (centres unmarked) [Compound A] :: 50
2) CCCCCCCCN1CCN(C(=O)NC(C(=O)NC2CN(S(=O)(=O)[O-])C2=O)c2cccs2)C(=O)C1=O.[Na+] (centres unmarked) [Compound J] :: 3.13
3) O=C(NC1CN(S(=O)(=O)[O-])C1=O)C(NC(=O)N1CCN(N=Cc2ccco2)C1=O)c1cccs1.[Na+] (centres unmarked) [Compound L] :: 6.25
4) CCN1CCN(C(=O)N[C@@H](C(=O)NC2CN(S(=O)(=O)[O-])C2=O)c2cccs2)C(=O)C1=O.[Na+] (some centres unmarked) [Compound F] :: 6.25

# input for lookup
Ask: Which Minimum inhibitory concentration (MIC) value belongs to CCN1CCN(C(=O)NC(C(=O)NC2CN(S(=O)(=O)[O-])C2=O)c2cccs2)C(=O)C1=O.[Na+] (racemic) [Compound E] ?
Result: 6.25

Origin of values: patent US4822790A
